We begin with Ki values for Somatostatin receptor type 1 (Homo sapiens, UniProt P30872), as collected from the published literature.
value-kind: Ki

- Cc1cccc2c(C(C)(C)NC(=O)c3cccc4c3OCCNC4)n[nH]c12: 9.45 µM
- CC(C)(NC(=O)c1cccc2c1OCCNC2)c1ccnc2ccccc12: 9.01 µM
- Cc1cccc2c(C(C)(C)NC(=O)c3cncc4c3OCCNC4)nn(C)c12: 9.45 µM
- C[C@@H](O)[C@H](NC(=O)[C@H](Cc1ccccc1)NC(=O)[C@@H](NC(=O)[C@H](CCCCN)NC(=O)[C@@H](Cc1c[nH]c2ccccc12)NC(=O)[C@H](Cc1c[nH]c2ccccc12)NC(=O)[C@H](Cc1ccccc1)NC(=O)[C@H](N)Cc1ccccc1)[C@@H](C)O)C(N)=O: 1.15 µM
- Cc1nnc(C(C)(C)NC(=O)c2cccc3c2OCCNC3)c2ccccc12: 9.45 µM
- CS[C@@H]1O[C@H](COCc2ccc3ccccc3c2)[C@@H](O)[C@@H](OCc2ccc3ccccc3c2)[C@H]1NC(=O)CCN: > 10 µM

* * *

Listing of Ki toward Somatostatin receptor type 1 (Homo sapiens, UniProt P30872), each taken from a published source.
value-kind: Ki (µM)

- COC[C@H]1O[C@@H](OCc2ccc3ccccc3c2)[C@H](NC(=O)CCN=C(N)N)[C@H](OCc2ccc3ccccc3c2)[C@@H]1O: 3.09
- Cc1cccn2c(C(C)(C)NC(=O)c3cccc4c3OCCNC4)ncc12: 9.01
- COC[C@H]1OC(OCc2ccc3ccccc3c2)[C@H](NC(=O)CCN)[C@H](OCc2ccc(Cl)cc2)[C@@H]1O (stereo partly drawn): 6.09
- Cn1nc(C(C)(C)NC(=O)c2cccc3c2OCCNC3)c2cccc(F)c21: 9.01
- CC[C@@H]1NC(=O)[C@H](CCCCN)NC(=O)[C@@H](Cc2c[nH]c3ccccc23)NC(=O)[C@H](Cc2ccc(O)cc2)NC(=O)[C@@H](NC(=O)[C@@H](Cc2ccccc2)NC(=O)CN2CCN(CCO)CC2)CSSC[C@@H](C(=O)N[C@H](C(N)=O)[C@@H](C)O)NC1=O: 4.52
- COC[C@H]1OC(OCc2ccc3ccccc3c2)[C@H](NC(=O)CCN)[C@H](OCc2ccc3ccccc3c2)[C@@H]1O (stereo partly drawn): 2.37
- COC[C@H]1OC(OCc2ccc3ccccc3c2)[C@H](NC(=O)CCCN)[C@@H](OCc2ccc3ccccc3c2)[C@@H]1O (stereo partly drawn): 9.22
